Catalogue of pIC50 values
Assay: Cytotoxicity against multidrug resistant human KBV1 cells overexpressing MDR1 by MTT method
Assay type: functional, cell-based
Settings: KB-V1
Note on pIC50: it is the negative log10 of concentration, concentration in mol/L.

Some entries whose results are on file:
Form field pIC50, entry CCCCn1c(=O)c2ccc(NCCN(C)C)cc2c2cnc3cc4c(cc3c21)OCO4 : 5.35

Lab note: CCCCn1c(=O)c2ccc(N)cc2c2cnc3cc4c(cc3c21)OCO4 gave pIC50 of 5.60

For CN(C)CCn1c(=O)c2ccc(N)cc2c2cnc3cc4c(cc3c21)OCO4 the molecule record lists pIC50 as 6.89

---
Recorded result, CCCCn1c(=O)c2ccc(NC(=O)CN(C)C)cc2c2cnc3cc4c(cc3c21)OCO4 , pIC50: 5.70

Value of measured pIC50 for the entry CN(C)CCn1c(=O)c2ccc(NC(=O)CN(C)C)cc2c2cnc3cc4c(cc3c21)OCO4 : 6.72

get_value(item= CCCCn1c(=O)c2cc([N+](=O)[O-])ccc2c2cnc3cc4c(cc3c21)OCO4 , readout=pIC50) returns 6.52

pIC50 recorded for this molecule, CCCCn1c(=O)c2cc(NCCN(C)C)ccc2c2cnc3cc4c(cc3c21)OCO4 , is 5.49

The reported measurements were obtained from ChEMBL document CHEMBL1137731.
